Molecular target: Helios (Homo sapiens, UniProt Q96SW2+Q9UKS7)
Construct: fluorescently labelled antibodies against Helios and Ikaros; endogenous in cells; host or cells: Jurkat cells
Sequence (Q9UKS7 whole entry): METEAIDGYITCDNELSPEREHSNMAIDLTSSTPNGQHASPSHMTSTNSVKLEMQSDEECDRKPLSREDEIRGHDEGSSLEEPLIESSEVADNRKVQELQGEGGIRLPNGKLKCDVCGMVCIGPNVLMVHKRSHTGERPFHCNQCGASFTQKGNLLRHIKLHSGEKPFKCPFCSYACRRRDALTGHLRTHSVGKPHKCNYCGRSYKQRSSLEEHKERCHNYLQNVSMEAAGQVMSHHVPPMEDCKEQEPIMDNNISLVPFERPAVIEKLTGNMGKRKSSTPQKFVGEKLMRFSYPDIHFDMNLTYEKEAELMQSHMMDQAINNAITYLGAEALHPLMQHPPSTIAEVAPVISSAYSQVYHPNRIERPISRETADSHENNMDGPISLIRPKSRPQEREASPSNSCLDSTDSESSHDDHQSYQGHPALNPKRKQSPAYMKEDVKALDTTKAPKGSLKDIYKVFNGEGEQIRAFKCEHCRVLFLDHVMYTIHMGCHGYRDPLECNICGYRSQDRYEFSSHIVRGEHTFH
Sequence (Q96SW2 whole entry): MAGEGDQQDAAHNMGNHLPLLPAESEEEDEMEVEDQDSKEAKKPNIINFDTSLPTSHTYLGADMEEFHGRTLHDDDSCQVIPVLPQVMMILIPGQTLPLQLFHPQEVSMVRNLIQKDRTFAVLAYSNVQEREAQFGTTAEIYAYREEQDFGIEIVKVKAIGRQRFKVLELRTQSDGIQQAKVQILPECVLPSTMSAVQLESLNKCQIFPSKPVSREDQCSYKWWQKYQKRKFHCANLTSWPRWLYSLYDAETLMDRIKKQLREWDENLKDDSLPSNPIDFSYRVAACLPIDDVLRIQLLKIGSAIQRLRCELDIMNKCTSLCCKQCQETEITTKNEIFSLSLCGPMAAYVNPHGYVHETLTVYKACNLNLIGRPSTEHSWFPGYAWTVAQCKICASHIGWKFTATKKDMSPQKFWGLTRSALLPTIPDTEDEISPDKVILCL
Sequence (Q16531 whole entry partner): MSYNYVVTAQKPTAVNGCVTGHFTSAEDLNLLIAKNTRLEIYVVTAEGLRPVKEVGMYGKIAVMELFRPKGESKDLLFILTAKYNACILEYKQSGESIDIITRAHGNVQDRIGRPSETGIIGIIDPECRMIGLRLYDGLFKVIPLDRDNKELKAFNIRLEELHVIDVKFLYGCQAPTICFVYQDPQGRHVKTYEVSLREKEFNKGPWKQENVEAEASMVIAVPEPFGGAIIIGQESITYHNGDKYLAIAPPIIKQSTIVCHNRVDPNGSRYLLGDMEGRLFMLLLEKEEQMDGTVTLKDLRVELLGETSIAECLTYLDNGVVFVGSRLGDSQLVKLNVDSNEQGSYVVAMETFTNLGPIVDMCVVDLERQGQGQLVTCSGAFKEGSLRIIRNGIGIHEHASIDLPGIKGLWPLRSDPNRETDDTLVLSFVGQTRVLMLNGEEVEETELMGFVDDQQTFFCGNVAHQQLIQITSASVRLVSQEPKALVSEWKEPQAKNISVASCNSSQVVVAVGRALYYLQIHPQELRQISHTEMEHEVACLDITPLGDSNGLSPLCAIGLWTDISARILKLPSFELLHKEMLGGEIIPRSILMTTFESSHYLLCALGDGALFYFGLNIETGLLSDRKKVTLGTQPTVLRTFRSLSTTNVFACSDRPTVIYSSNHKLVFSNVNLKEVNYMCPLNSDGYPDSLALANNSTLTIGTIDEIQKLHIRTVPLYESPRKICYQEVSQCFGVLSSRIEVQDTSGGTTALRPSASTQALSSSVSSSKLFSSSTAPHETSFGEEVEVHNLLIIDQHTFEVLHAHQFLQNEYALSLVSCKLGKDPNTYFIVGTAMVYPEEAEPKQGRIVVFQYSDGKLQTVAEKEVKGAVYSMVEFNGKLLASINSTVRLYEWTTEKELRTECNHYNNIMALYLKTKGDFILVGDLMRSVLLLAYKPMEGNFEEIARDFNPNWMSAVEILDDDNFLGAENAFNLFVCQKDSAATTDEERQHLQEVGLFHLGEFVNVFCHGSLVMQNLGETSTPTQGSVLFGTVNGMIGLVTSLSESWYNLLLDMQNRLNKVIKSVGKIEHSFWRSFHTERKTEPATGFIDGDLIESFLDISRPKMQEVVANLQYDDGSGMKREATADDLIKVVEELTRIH
Assay: Helios Cellular Degradation Assay (flow cytometry, Helios-PE antibody staining, 72 h)
Assay type: cell-based
Details: Jurkat, Jurkat cells, 72 h incubation, flow cytometry; read-out: Helios Dmax
assay metric: Dmax (%)
One number for each entry, in %.

Consider the reported Dmax for these compounds:
CC1CCN(Cc2ccnc(-c3ccc4c(c3)CN(C3CCC(=O)NC3=O)C4=O)c2)CC1 (centres unmarked)
80
C[C@H]1CCCN1Cc1ccnc(-c2ccc3c(c2)CN(C2CCC(=O)NC2=O)C3=O)c1 (some centres unmarked)
57
CC1(C)CCN1Cc1ccnc(-c2ccc3c(c2)CN(C2CCC(=O)NC2=O)C3=O)c1 (centres unmarked)
67
CC1(C)CCCN1Cc1ccnc(-c2ccc3c(c2)CN(C2CCC(=O)NC2=O)C3=O)c1 (centres unmarked)
77
O=C1CCC(N2Cc3cc(-c4cc(CN5CCN(c6ccncc6)CC5)ccn4)ccc3C2=O)C(=O)N1 (centres unmarked)
0

Need Dmax for each of these compounds.
1. O=C1CCC(N2Cc3cc(-c4cc(CN5CCCCCC5)ccn4)ccc3C2=O)C(=O)N1 (centres unmarked)
2. C[C@@H]1C[C@H](C)CN(Cc2ccnc(-c3ccc4c(c3)CN(C3CCC(=O)NC3=O)C4=O)c2)C1 (some centres unmarked)
3. CC(C)(C)CNCc1ccnc(-c2ccc3c(c2)CN(C2CCC(=O)NC2=O)C3=O)c1 (centres unmarked)

1. 72
2. 64
3. 70

###

Biological target: Helios (Homo sapiens, UniProt Q96SW2+Q9UKS7)
Construct: fluorescently labelled antibodies against Helios and Ikaros; endogenous in cells; host or cells: Jurkat cells
Experiment: Helios Cellular Degradation Assay (flow cytometry, Helios-PE antibody staining, 72 h)
Type: cell-based
Details: Jurkat, Jurkat cells, 72 h incubation, flow cytometry; read-out: Helios Dmax
So basically, if Dmax comes in under 80% it's 1 (yes), and if it's 80% or more it's 0 (no).

CC(CO)N(C)Cc1ccnc(-c2ccc3c(c2)CN(C2CCC(=O)NC2=O)C3=O)c1 (centres unmarked)
0 (no)
CN(Cc1ccc(S(C)(=O)=O)cc1)Cc1ccnc(-c2ccc3c(c2)CN(C2CCC(=O)NC2=O)C3=O)c1 (centres unmarked)
1 (yes)

Is it true that Dmax reported for CC1(C)CCN(Cc2ccnc(-c3ccc4c(c3)CN(C3CCC(=O)NC3=O)C4=O)c2)CC1 (centres unmarked) is less than 80%? 0 (no)

// same read-out, input: CN(CCc1ccccn1)Cc1ccnc(-c2ccc3c(c2)CN(C2CCC(=O)NC2=O)C3=O)c1 (centres unmarked) 1 (yes)

// same read-out, input: O=C1CCC(N2Cc3cc(-c4cc(CN[C@@H]5C[C@H]5c5ccccc5)ccn4)ccc3C2=O)C(=O)N1 (some centres unmarked) 1 (yes)

// same read-out, input: CN(Cc1ccnc(-c2ccc3c(c2)CN(C2CCC(=O)NC2=O)C3=O)c1)Cc1nccs1 (centres unmarked) 1 (yes)

// same read-out, input: O=C1CCC(N2Cc3cc(-c4cc(CNC5(C6CC6)CCC5)ccn4)ccc3C2=O)C(=O)N1 (centres unmarked) 0 (no)

// same read-out, input: CN1C[C@@H]2CN(Cc3ccnc(-c4ccc5c(c4)CN(C4CCC(=O)NC4=O)C5=O)c3)C[C@@H]2C1 (some centres unmarked) 1 (yes)
